# measured_target: Human KLK1 (Homo sapiens (Human))
# Sequence (P06870 25-262): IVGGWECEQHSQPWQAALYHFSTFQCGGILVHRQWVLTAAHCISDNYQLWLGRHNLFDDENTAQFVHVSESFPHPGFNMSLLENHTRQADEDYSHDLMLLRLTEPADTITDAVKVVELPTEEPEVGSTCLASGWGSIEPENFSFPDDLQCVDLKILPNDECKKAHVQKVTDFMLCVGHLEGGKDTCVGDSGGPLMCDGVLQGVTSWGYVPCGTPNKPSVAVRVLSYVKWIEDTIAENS
# run_description: Determination of the IC50 for KLK1
# Type: biochemical
# particulars: 37° C., fluorogenic substrate H-DVal-Leu-Arg-AFC
observable: pIC50
API: returns pIC50 as number; meaning -log10 of concentration in mol/L.

Prompt: Give reported pIC50 value for O=C(NCc1cnc2[nH]ccc2c1)c1ccc(=O)n(Cc2ccc(Cn3ccccc3=O)cc2)c1
Response: 4.56

* * *

I'd appreciate it if you could supply IC50 values for the items below.
# measured_target: Human plasma kallikrein (Homo sapiens (Human))
# Sequence (P03952 391-638): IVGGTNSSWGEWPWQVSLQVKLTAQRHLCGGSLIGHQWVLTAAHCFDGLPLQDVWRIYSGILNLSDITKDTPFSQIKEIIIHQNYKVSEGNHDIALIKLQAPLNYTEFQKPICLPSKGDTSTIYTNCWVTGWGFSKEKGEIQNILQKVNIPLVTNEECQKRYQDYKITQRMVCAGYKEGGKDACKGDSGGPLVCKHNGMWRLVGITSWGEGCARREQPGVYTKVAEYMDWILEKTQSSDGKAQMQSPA
# Sequence (P03952 20-390 partner): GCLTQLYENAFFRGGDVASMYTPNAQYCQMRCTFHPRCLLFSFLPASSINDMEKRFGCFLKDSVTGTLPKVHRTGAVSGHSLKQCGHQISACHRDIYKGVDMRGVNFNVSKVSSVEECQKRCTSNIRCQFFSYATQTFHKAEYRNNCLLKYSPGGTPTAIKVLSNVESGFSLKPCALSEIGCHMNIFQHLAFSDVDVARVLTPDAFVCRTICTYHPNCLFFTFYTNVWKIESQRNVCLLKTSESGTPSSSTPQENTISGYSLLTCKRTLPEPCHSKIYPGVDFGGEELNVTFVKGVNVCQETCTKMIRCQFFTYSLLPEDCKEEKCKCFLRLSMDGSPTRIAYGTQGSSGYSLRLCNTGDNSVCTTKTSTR
# run_description: Determination of the IC50 for plasma kallikrein
# particulars: 37° C., fluorogenic substrate H-DPro-Phe-Arg-AFC; read-out: IC50 (human PKal)
Respond numerically; units are nM and should not be typed.

Prompt: Give reported IC50 value for Cc1cnn(Cc2ccc(Cc3cncc(C(=O)NCc4ccc5c(N)nccc5c4)c3)cc2)c1
Response: 3.86

Prompt: Give reported IC50 value for Cc1cnn(Cc2ccc(Cc3cncc(C(=O)NCc4cnc5[nH]ccc5c4)c3)cc2)c1
Response: 216

Prompt: Give reported IC50 value for Cc1cnn(Cc2ccc(Cc3ccnc(C(=O)NCc4cnc5[nH]ccc5c4)c3)cc2)c1
Response: 6610

Prompt: Give reported IC50 value for O=C(NCc1cnc2[nH]ccc2c1)c1ccc(=O)n(Cc2ccc(Cn3ccccc3=O)cc2)c1
Response: 580
